assay: Kinetic parameter kcat for hydrolysis at 25 degrees Celsius using phosphate buffer in reaction with 3-[2-(4-imidazolyl)ethyl] […]
Label NOT MET if k cat falls below 0.03 s⁻¹; label MET in every other case.

Molecule	Assigned class
CC(=O)N[C@H](Cc1ccccc1)C(=O)Oc1ccc([N+](=O)[O-])cc1	NOT MET
CC(=O)NCC(=O)Oc1ccc([N+](=O)[O-])cc1	MET
CC(C)(C)OC(=O)NCC(=O)Oc1ccc([N+](=O)[O-])cc1	MET
CC(=O)NC(C)C(=O)Oc1ccc([N+](=O)[O-])cc1 (stereo not given)	MET
CC(=O)N[C@@H](Cc1ccccc1)C(=O)Oc1ccc([N+](=O)[O-])cc1	NOT MET

* * *

assay: Kinetic parameter Kun for hydrolysis at 25 degrees Celsius using phosphate buffer in reaction with 3-[2-(4-imidazolyl)ethyl] […]
Measured Kun of individual entries

Compound	Kun
CC(C)(C)OC(=O)NCC(=O)Oc1ccc([N+](=O)[O-])cc1	0.000129 s⁻¹
CC(=O)N[C@@H](Cc1ccccc1)C(=O)Oc1ccc([N+](=O)[O-])cc1	0.000861 s⁻¹
CC(=O)NCC(=O)Oc1ccc([N+](=O)[O-])cc1	0.000562 s⁻¹
CC(=O)NC(C)C(=O)Oc1ccc([N+](=O)[O-])cc1 (stereo not given)	0.00144 s⁻¹
CC(=O)N[C@H](Cc1ccccc1)C(=O)Oc1ccc([N+](=O)[O-])cc1	0.000861 s⁻¹

* * *

experiment: Kinetic parameter Km for hydrolysis at 25 degrees Celsius using phosphate buffer in reaction with 3-[2-(4-imidazolyl)ethyl] […]
Measure: Km (µM)

Compound	Experimental result
CC(=O)N[C@@H](Cc1ccccc1)C(=O)Oc1ccc([N+](=O)[O-])cc1	148
CC(=O)N[C@H](Cc1ccccc1)C(=O)Oc1ccc([N+](=O)[O-])cc1	478
CC(=O)NC(C)C(=O)Oc1ccc([N+](=O)[O-])cc1 (stereo not given)	1350
CC(=O)NCC(=O)Oc1ccc([N+](=O)[O-])cc1	1470
CC(C)(C)OC(=O)NCC(=O)Oc1ccc([N+](=O)[O-])cc1	387

* * *

assay: Ratio of kcat and kun was determined

Compound	k cat/Kuncat
CC(=O)NCC(=O)Oc1ccc([N+](=O)[O-])cc1	92
CC(=O)N[C@H](Cc1ccccc1)C(=O)Oc1ccc([N+](=O)[O-])cc1	28
CC(=O)NC(C)C(=O)Oc1ccc([N+](=O)[O-])cc1 (stereo not given)	26
CC(=O)N[C@@H](Cc1ccccc1)C(=O)Oc1ccc([N+](=O)[O-])cc1	13
CC(C)(C)OC(=O)NCC(=O)Oc1ccc([N+](=O)[O-])cc1	242

* * *

assay: Ratio of kcat and Km was determined
Could you please mark 1 for values of k cat/Km below 50 M⁻¹ s⁻¹ and 0 for values at or above it?

Compound	Assigned class
CC(=O)NC(C)C(=O)Oc1ccc([N+](=O)[O-])cc1 (stereo not given)	1
CC(=O)NCC(=O)Oc1ccc([N+](=O)[O-])cc1	1
CC(=O)N[C@@H](Cc1ccccc1)C(=O)Oc1ccc([N+](=O)[O-])cc1	0
CC(C)(C)OC(=O)NCC(=O)Oc1ccc([N+](=O)[O-])cc1	0

Data credit: ChEMBL document CHEMBL1126378
